Reported growth inhibition values for the following compounds.
test-details: NCI Yeast Anticancer Drug Screen. Data for the CLN2oe strain (AID 163);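 further: 0% = growth of vehicle-only control cultures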
condition: S. cerevisiae CLN2oe strain, at 33.0 µM, hits give high values
Experimental: Growth inhibition of yeast strains with defined genetic alterations is measured as a screen for potential anti-cancer activity. Selected strains with alterations in DNA damage repair or cell cycle control were exposed to compounds and growth inhibition was measured relative to vehicle treated controls. The strain used in this assay is CLN2oe
The panel holds about 79,000 compounds, 15% with a hit somewhere; the sample as a whole holds those more often.
The reply should contain only the number, in %.

Worked examples follow.
{"compound": "COc1cccc2c1C(=O)c1c(O)c3c(c(O)c1C2=O)C[C@@](O)(C(C)=O)C[C@@H]3OC1CC(OC(C)=O)C(OC(C)=O)C(C)O1 (stereo partly specified)", "growth inhibition [%]": 11}
{"compound": "N#CNC(N)=Nc1cc2ccccc2c2ccccc12", "growth inhibition [%]": 83}
{"compound": "CN(C)N=Nc1ccccc1C(=O)NC#N", "growth inhibition [%]": 99}
{"compound": "Cc1ccccc1N=C(NO)c1ccccc1", "growth inhibition [%]": 20}
{"compound": "Cc1cc2cc3cc(C)c(N)cc3nc2cc1N", "growth inhibition [%]": 46}

Proceeding to the next compound to report its growth inhibition.
Item under review: CC1(C)CC(=O)C(/C=N/c2nc(-c3ccccc3)cs2)=C(O)C1 . Reported growth inhibition?
25

This collection of values is drawn from PubChem BioAssay (NCI).
